# Test system: HPV31
# Measurement Description: Inhibition of viral replication in cells that maintain HPV31 DNA, viral DNA quantified by real-time PCR
# Assay type: cell-based, Human papilloma virus
# Measurement Conditions: cells maintaining HPV31 cultured 72 hours with polyamide; vs DMSO control; highest dose tested 10 μM
pIC50: −log10 of the molar value.

| Compound | pIC50 |
| --- | --- |
| CN(CCCN)CCCNC(=O)CCNC(=O)c1cc(NC(=O)CCNC(=O)c2cc(NC(=O)c3cc(NC(=O)c4cc(NC(=O)CCNC(=O)c5cc(NC(=O)c6cc(NC(=O)c7cc(NC(=O)CCCNC(=O)c8cc(NC(=O)CCNC(=O)c9cc(NC(=O)c%10cc(NC(=O)CCNC(=O)c%11cc(NC(=O)c%12cc(N=C(N(C)C)N(C)C)cn%12C)cn%11C)cn%10C)cn9C)cn8C)cn7C)cn6C)cn5C)cn4C)cn3C)cn2C)cn1C | 7.40 |
| CN(C)CCCNC(=O)CCNC(=O)c1cc(NC(=O)c2cc(NC(=O)c3cc(NC(=O)CCNC(=O)c4cc(NC(=O)c5cc(NC(=O)c6cc(NC(=O)CCNC(=O)c7cc(NC(=O)c8cc(NC(=O)CCCNC(=O)c9cc(NC(=O)c%10cc(NC(=O)CCNC(=O)c%11nc(NC(=O)c%12cc(NC(=O)c%13cc(NC(=O)CCNC(=O)c%14cc(N=C(N(C)C)N(C)C)cn%14C)cn%13C)cn%12C)cn%11C)cn%10C)cn9C)cn8C)cn7C)cn6C)cn5C)cn4C)cn3C)cn2C)cn1C | 7.33 |
| CN(CCCN)CCCNC(=O)CCNC(=O)c1cc(NC(=O)CCNC(=O)c2cc(NC(=O)c3cc(NC(=O)c4cc(NC(=O)CCNC(=O)c5cc(NC(=O)c6cc(NC(=O)c7cc(NC(=O)[C@H](N)CCNC(=O)c8cc(NC(=O)CCNC(=O)c9cc(NC(=O)c%10cc(NC(=O)CCNC(=O)c%11cc(NC(=O)c%12cc(NC(=O)c%13cc(N=C(N(C)C)N(C)C)cn%13C)cn%12C)cn%11C)cn%10C)cn9C)cn8C)cn7C)cn6C)cn5C)cn4C)cn3C)cn2C)cn1C | 6.98 |
| CN(CCCN)CCCNC(=O)CCNC(=O)c1cc(NC(=O)CCNC(=O)c2cc(NC(=O)c3cc(NC(=O)c4cc(NC(=O)CCNC(=O)c5cc(NC(=O)c6cc(NC(=O)CCNC(=O)c7cc(NC(=O)CCCNC(=O)c8nc(NC(=O)c9cc(NC(=O)CCNC(=O)c%10cc(NC(=O)c%11cc(NC(=O)CCNC(=O)c%12cc(NC(=O)c%13cc(NC(=O)c%14cc(N=C(N(C)C)N(C)C)cn%14C)cn%13C)cn%12C)cn%11C)cn%10C)cn9C)cn8C)cn7C)cn6C)cn5C)cn4C)cn3C)cn2C)cn1C.O=C(O)C(F)(F)F.O=C(O)C(F)(F)F.O=C(O)C(F)(F)F.O=C(O)C(F)(F)F | 7.80 |
| CN(C)CCCNC(=O)CCNC(=O)c1cc(NC(=O)c2cc(NC(=O)c3cc(NC(=O)CCNC(=O)c4cc(NC(=O)c5cc(NC(=O)c6cc(NC(=O)CCNC(=O)c7cc(NC(=O)c8cc(NC(=O)CCCNC(=O)c9cc(NC(=O)c%10cc(NC(=O)CCNC(=O)c%11nc(NC(=O)c%12cc(NC(=O)c%13cc(NC(=O)CCNC(=O)c%14cc(NC(=O)c%15cc(N=C(N(C)C)N(C)C)cn%15C)cn%14C)cn%13C)cn%12C)cn%11C)cn%10C)cn9C)cn8C)cn7C)cn6C)cn5C)cn4C)cn3C)cn2C)cn1C | 7.80 |
| CN(CCCN)CCCNC(=O)c1cc(NC(=O)c2cc(NC(=O)CCNC(=O)c3cc(NC(=O)c4cc(NC(=O)c5cc(NC(=O)CCNC(=O)c6cc(NC(=O)c7cc(NC(=O)CCNC(=O)c8cc(NC(=O)[C@H](N)CCNC(=O)c9nc(NC(=O)c%10cc(NC(=O)CCNC(=O)c%11cc(NC(=O)c%12cc(NC(=O)CCNC(=O)c%13cc(NC(=O)c%14cc(N=C(N(C)C)N(C)C)cn%14C)cn%13C)cn%12C)cn%11C)cn%10C)cn9C)cn8C)cn7C)cn6C)cn5C)cn4C)cn3C)cn2C)cn1C | 7.02 |
| CN(CCCN)CCCNC(=O)CCNC(=O)c1cc(NC(=O)c2cc(NC(=O)c3cc(NC(=O)CCNC(=O)c4cc(NC(=O)c5cc(NC(=O)c6cc(NC(=O)CCNC(=O)c7cc(NC(=O)c8cc(NC(=O)CCCNC(=O)c9cc(NC(=O)c%10cc(NC(=O)CCNC(=O)c%11nc(NC(=O)c%12cc(NC(=O)c%13cc(NC(=O)CCNC(=O)c%14cc(N=C(N(C)C)N(C)C)cn%14C)cn%13C)cn%12C)cn%11C)cn%10C)cn9C)cn8C)cn7C)cn6C)cn5C)cn4C)cn3C)cn2C)cn1C | 7.46 |
| CN(CCCN)CCCNC(=O)CCNC(=O)c1cc(NC(=O)c2cc(NC(=O)c3cc(NC(=O)c4cc(NC(=O)CCNC(=O)c5cc(NC(=O)c6cc(NC(=O)CCCNC(=O)c7cc(NC(=O)c8cc(NC(=O)c9cc(NC(=O)CCNC(=O)c%10cc(NC(=O)c%11cc(N=C(N(C)C)N(C)C)cn%11C)cn%10C)cn9C)cn8C)cn7C)cn6C)cn5C)cn4C)cn3C)cn2C)cn1C [NV1084, TMG-PyPyβPyPyPy-γ-PyPyβPyPyPyPyβ-Ta•3TFA] | 5.14 |
| CN(CCCN)CCCNC(=O)CCNC(=O)c1cc(NC(=O)c2cc(NC(=O)c3cc(NC(=O)CCNC(=O)c4cc(NC(=O)c5cc(NC(=O)c6cc(NC(=O)CCNC(=O)c7cc(NC(=O)c8cc(NC(=O)CCCNC(=O)c9cc(NC(=O)c%10cc(NC(=O)CCNC(=O)c%11nc(NC(=O)c%12cc(NC(=O)c%13cc(NC(=O)CCNC(=O)c%14cc(NC(=O)c%15cc(N=C(N(C)C)N(C)C)cn%15C)cn%14C)cn%13C)cn%12C)cn%11C)cn%10C)cn9C)cn8C)cn7C)cn6C)cn5C)cn4C)cn3C)cn2C)cn1C | 7.49 |
